Fibroblast growth factor receptor 1 (Homo sapiens) IC50, compiled from various sources.
Quantity Name: IC50

>>> print(df.to_string())
                                   compound  value_reported
0  C[C@@H](Oc1ccc2[nH]nc(-c3cccc(C(=O)NC4CCOCC4)c3)c2c1)c1c(Cl)cncc1Cl   50 to 1000 nM
1  COc1cc2nccc(Oc3cc(Cl)c4c(C(=O)N5CCCC5)coc4c3)c2cc1C(N)=O  200 to 1000 nM
2  COc1cc2nccc(Oc3ccc4nc(NCc5cccc(C(F)(F)F)c5)sc4c3)c2cc1C(N)=O  200 to 1000 nM
3  CC(Oc1ccc2[nH]nc(/C=C/c3ccc(CN4CCOC[C@@H]4C)cc3)c2c1)c1c(Cl)cncc1Cl (some centres unmarked)   50 to 1000 nM
4  CN(C)CCn1cc(-c2ccc3c(c2)ncn3-c2cc(-c3ccc(F)cc3F)cc(NS(=O)(=O)C3CC3)n2)cn1          3.7 nM
5  C=CC(=O)Nc1cc(N2CCN(CC)CC2)c(OC)cc1Nc1ncc(/C=C(\F)c2c(Cl)c(OC)cc(OC)c2Cl)cn1         25.8 nM
6  NCc1ccc(Nc2ncnc(Nc3cc(-c4ccco4)n[nH]3)n2)cc1       < 1150 nM
7  COc1cc(Nc2ncnc(Nc3ccc(Br)cc3)n2)cc(OC)c1OC  925 to 5550 nM

###

Fibroblast growth factor receptor 1 (Homo sapiens, UniProt P11362) IC50, compiled from various sources.
Quantity Name: IC50

                                   compound                            assayed_system  quantity_name  value_reported
0  COCCOc1cc(NC(=O)N2CCCc3cc(C4CC4)c(C=O)nc32)ncc1C#N  Fibroblast growth factor receptor 1 (Homo sapiens, UniProt P11362)           IC50      > 10000 nM
1  C=CC(=O)NCc1cc2c(cn1)CN(c1c(F)c(OC)cc(OC)c1F)C(=O)N2CCF  Fibroblast growth factor receptor 1 (Homo sapiens, UniProt P11362)           IC50        > 200 nM
2  COc1cc(OC)c(F)c(-c2ncc3c(-c4ccc5c(c4)CN([C@H]4CC[C@H](O)CC4)C5=O)n[nH]c3n2)c1F  Fibroblast growth factor receptor 1 (Homo sapiens, UniProt P11362)           IC50        < 100 nM
3  C=CC(=O)NCc1cc2c(cn1)CN(c1c(F)c(OC)cc(OC)c1F)C(=O)C2(C)C  Fibroblast growth factor receptor 1 (Homo sapiens, UniProt P11362)           IC50        > 200 nM
4  CCN1CCC(C(C)Oc2ccc3[nH]nc(/C=C/c4ccc(CN5CCOCC5)cc4)c3c2)CC1 (centres unmarked)  Fibroblast growth factor receptor 1 (Homo sapiens, UniProt P11362)           IC50   50 to 1000 nM
5  C=CC(=O)Nc1cc(N2CCOCC2)c(C)cc1Nc1ncc2cc(-c3c(Cl)c(OC)cc(OC)c3Cl)c3nccn3c2n1  Fibroblast growth factor receptor 1 (Homo sapiens, UniProt P11362)           IC50         < 50 nM
6  COc1ccc(CNc2nc3ccccc3n2-c2ncnc(Nc3cc(OC)c(OC)c(OC)c3)n2)cc1  Fibroblast growth factor receptor 1 (Homo sapiens, UniProt P11362)           IC50  779 to 4670 nM
7  COc1cc(Nc2ncnc(-n3c(=O)[nH]c4ccccc43)n2)cc(OC)c1OC  Fibroblast growth factor receptor 1 (Homo sapiens, UniProt P11362)           IC50      > 11400 nM
